Source: PubChem BioAssay AID1963863

system: 931267-113-T-J1-PDC KRAS spheroid with HUVEC/MSC, viability; assay: Anticancer human tumor 931267-113-T-J1-PDC patient-derived colon adenocarcinoma cell line growth inhibition [KRAS2]; conditions: second compound 3.16 µM; first compound 0.0316 µM; stronger effect = lower value;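 also: compound exposure lasted 7 days before the readout; 100% = DMSO vehicle control viability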
Endpoint label: viability, T/C (%)
Give the number; % is assumed, so skip it.

Field viability, T/C (system: 931267-113-T-J1-PDC KRAS spheroid with HUVEC/MSC, viability) for entry CN(C)C/C=C/C(=O)Nc1cc2c(Nc3ccc(F)c(Cl)c3)ncnc2cc1O[C@H]1CCOC1 + COc1cc2nc(C)nc(NC(C)c3cc(N)cc(C(F)(F)F)c3)c2cc1OC1CCOC1 = 97.2

Field viability, T/C (system: 931267-113-T-J1-PDC KRAS spheroid with HUVEC/MSC, viability) for entry COc1cc2nccc(Oc3ccc(NC(=O)C4(C(=O)Nc5ccc(F)cc5)CC4)cc3)c2cc1OC + COc1cc2nc(C)nc(NC(C)c3cc(N)cc(C(F)(F)F)c3)c2cc1OC1CCOC1 = 74

Field viability, T/C (system: 931267-113-T-J1-PDC KRAS spheroid with HUVEC/MSC, viability) for entry COC(=O)c1ccc2c(C(=Nc3ccc(N(C)C(=O)CN4CCN(C)CC4)cc3)c3ccccc3)c(O)[nH]c2c1 + C=CC(=O)N1CCN(c2nc(=O)n(-c3c(C)ccnc3C(C)C)c3nc(-c4c(O)cccc4F)c(F)cc23)C(C)C1 = 121

Field viability, T/C (system: 931267-113-T-J1-PDC KRAS spheroid with HUVEC/MSC, viability) for entry Cn1ncnc1[C@H]1c2n[nH]c(=O)c3cc(F)cc(c23)N[C@@H]1c1ccc(F)cc1 + C=CC(=O)N1CCN(c2nc(OCC3CCCN3C)nc3c2CCN(c2cccc4cccc(C)c24)C3)CC1CC#N = 0.64

Field viability, T/C (system: 931267-113-T-J1-PDC KRAS spheroid with HUVEC/MSC, viability) for entry O=C(c1cc(Cc2n[nH]c(=O)c3ccccc23)ccc1F)N1CCN(C(=O)C2CC2)CC1 + CC1OCC2(CCN(c3cnc(Sc4ccnc(N)c4Cl)c(N)n3)CC2)C1N = 56.6
